Recorded switch fluorescence ratio for the following sequences
# Tested on: ATP;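 also: ATP exposure 15 min at 22 °C before imaging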
# assay_summary: switch fluorescence ratio, 500 uM ATP over buffer (Cy3 cluster intensity, sum of 5 cycles each) (fold (ratio)); higher = stronger signal-on switching upon ATP binding; sequences stand for … in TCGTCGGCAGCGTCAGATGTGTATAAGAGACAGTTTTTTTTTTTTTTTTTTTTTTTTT…TC
# details: aptamer strand: ATP DNA aptamer (quencher-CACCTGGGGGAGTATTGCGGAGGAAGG + anchor), 100 nM annealed; ATP concentration: 500 uM
API note: the answer field is a bare number with no unit suffix.

{"biopolymer_sequence": "AAACGCCTGC", "test_target": "ATP", "reported_metric": "switch fluorescence ratio", "assay_value": 1.08}
{"biopolymer_sequence": "AAGGTAGTGG", "test_target": "ATP", "reported_metric": "switch fluorescence ratio", "assay_value": 0.962}
{"biopolymer_sequence": "AGTTGGCGGC", "test_target": "ATP", "reported_metric": "switch fluorescence ratio", "assay_value": 1.02}
{"biopolymer_sequence": "GATAGTGGGA", "test_target": "ATP", "reported_metric": "switch fluorescence ratio", "assay_value": 0.997}
{"biopolymer_sequence": "GACGGGGACC", "test_target": "ATP", "reported_metric": "switch fluorescence ratio", "assay_value": 1.06}
{"biopolymer_sequence": "ATGCCAGGGT", "test_target": "ATP", "reported_metric": "switch fluorescence ratio", "assay_value": 0.998}
{"biopolymer_sequence": "GGACTAGCTT", "test_target": "ATP", "reported_metric": "switch fluorescence ratio", "assay_value": 1.03}
{"biopolymer_sequence": "AGGGCGACGC", "test_target": "ATP", "reported_metric": "switch fluorescence ratio", "assay_value": 0.912}

Please report switch fluorescence ratio for the following sequence: GGGGTGTATT
0.984

Please report switch fluorescence ratio for the following sequence: TGTTGCGTTA
0.985

Please report switch fluorescence ratio for the following sequence: ATTTGAACAG
0.978

Please report switch fluorescence ratio for the following sequence: AGTTTAGGGG
0.98

Please report switch fluorescence ratio for the following sequence: TTTTTGCTCA
0.991

Please report switch fluorescence ratio for the following sequence: AATCGGTTAG
1

Data credit: the supplement of paper PMC10126150
